experiment_notes: Binding affinity to West Nile virus NSB2 (52 to 96 amino acids)-NS3 (1 to 184 amino acids) protease using Phac-Leu-Lys-Lys-Arg-AMC as substrate measured immediately upto 10 mins by fluorogenic assay
*1 amine or outer side, *2 acyl side, *3 side chain or, on linkers, in order; H or OH if unused. Where a SMILES comes first, the peptide text is derived from it. [ ]: non-standard residue; d: D form. X2 = N=C(N)N[C@H](CCOCN[*:1])C(=O)[*:2]; X1 = O=C([C@H](CN[*:1])Cc1ccccc1)[*:2]; NMeβAla = CN(CCC(=O)[*:2])[*:1]
measured_property: log10 Ki (log10 of the value in nM)
Values reflect log10 of reported Ki (nM).

compound	recorded_value
CN1CCC(=O)N[C@@H](CCCCN)C(=O)N[C@@H](CCCCN)C(=O)NCOCC[C@@H](NC(=N)N)C(=O)NCC(=O)NCC1=O (cyclo(GG[NMeβAla]KK[X2]))	4.57
CC(C)[C@@H]1NC(=O)CCNC(=O)CNC(=O)[C@H](NC(=N)N)CCOCNC(=O)[C@H](CCCCN)NC(=O)[C@H](CCCCN)NC1=O	4.60
N=C(N)N[C@@H]1CCOCNC(=O)[C@H](CCCCN)NC(=O)[C@H](CCCCN)NC(=O)[C@@H](c2ccccc2)NC(=O)CCNC(=O)CNC1=O	2.57
CC(C)C[C@@H]1NC(=O)CCNC(=O)CNC(=O)[C@H](NC(=N)N)CCOCNC(=O)[C@H](CCCCN)NC(=O)[C@H](CCCCN)NC1=O	4.01
C[C@H]1NC(=O)CNC(=O)CNC(=O)[C@H](NC(=N)N)CCOCNC(=O)[C@H](CCCCN)NC(=O)[C@H](CCCCN)NC1=O	3.84
N=C(N)N[C@@H]1CCOCNC(=O)[C@H](CCCCN)NC(=O)[C@H](CCCCN)NC(=O)[C@H]2CCCN2C(=O)CCNC(=O)CNC1=O	3.41

### Prompt State its log10 Ki: N=C(N)N[C@@H]1CCOCNC(=O)[C@H](CCCCN)NC(=O)[C@H](CCCCN)NC(=O)[C@@H](Cc2ccccc2)CNC(=O)CNC(=O)CNC1=O (cyclo(GG[X1]KK[X2]))
### Response 4.17

* * *

experiment_notes: Binding affinity to Zika virus NS2B-NS3 protease using Phac-Leu-Lys-Lys-Arg-AMC as substrate measured immediately upto 10 mins by fluorogenic assay
*1 amine or outer side, *2 acyl side, *3 side chain or, on linkers, in order; H or OH if unused. Where a SMILES comes first, the peptide text is derived from it. [ ]: non-standard residue; d: D form. X2 = N=C(N)N[C@H](CCOCN[*:1])C(=O)[*:2]; βAla = NCCC(=O)O; Sar = CNCC(=O)O
measured_property: pKi
Scale explanation: pKi corresponds to minus log10 of a concentration expressed in moles per litre.

compound	pKi
N=C(N)N[C@@H]1CCOCNC(=O)[C@H](CCCCN)NC(=O)[C@H](CCCCN)NC(=O)Cc2cccc(c2)CNC(=O)[C@@H](CCc2ccccc2)NC1=O	8.22
N=C(N)N[C@@H]1CCOCNC(=O)[C@H](CCCCN)NC(=O)[C@H](CCCCN)NC(=O)Cc2cccc(c2)CNC(=O)[C@@H](CCC2CCCCC2)NC1=O.O=C(O)C(F)(F)F	8.63
CN1CC(=O)NCCC(=O)N[C@@H](CCCCN)C(=O)N[C@@H](CCCCN)C(=O)NCOCC[C@@H](NC(=N)N)C(=O)NCC1=O (cyclo(G[Sar][βAla]KK[X2]))	6.48
C[C@@H]1NC(=O)CNC(=O)CNC(=O)[C@H](NC(=N)N)CCOCNC(=O)[C@H](CCCCN)NC(=O)[C@H](CCCCN)NC1=O	7.04
CN1CC(=O)NCC(=O)NCCC(=O)N[C@@H](CCCCN)C(=O)N[C@@H](CCCCN)C(=O)NCOCC[C@@H](NC(=N)N)C1=O (cyclo(G[βAla]KK[X2][Sar]))	6.48

### Prompt State its pKi: CCCC[C@H]1NC(=O)CCNC(=O)CNC(=O)[C@H](NC(=N)N)CCOCNC(=O)[C@H](CCCCN)NC(=O)[C@H](CCCCN)NC1=O
### Response 8.31

### Prompt State its pKi: N=C(N)N[C@@H]1CCOCNC(=O)[C@H](CCCCN)NC(=O)[C@H](CCCCN)NC(=O)CCNC(=O)Cc2cccc(c2)CNC1=O
### Response 7.09

### Prompt State its pKi: C[C@@H]1NC(=O)CCNC(=O)CNC(=O)[C@H](NC(=N)N)CCOCNC(=O)[C@H](CCCCN)NC(=O)[C@H](CCCCN)NC1=O
### Response 7.12

### Prompt State its pKi: C[C@H]1NC(=O)CCNC(=O)CNC(=O)[C@H](NC(=N)N)CCOCNC(=O)[C@H](CCCCN)NC(=O)[C@H](CCCCN)NC1=O
### Response 8.25

### Prompt State its pKi: N=C(N)N[C@@H]1CCOCNC(=O)[C@H](CCCCN)NC(=O)[C@H](CCCCN)NC(=O)Cc2cccc(c2)CNC(=O)[C@@H](CC2CCCCC2)NC1=O
### Response 8.44

### Prompt State its pKi: N=C(N)N[C@@H]1CCOCNC(=O)[C@H](CCCCN)NC(=O)[C@H](CCCCN)NC(=O)[C@H]2CCCN2C(=O)CCNC(=O)CNC1=O
### Response 7.68

### Prompt State its pKi: CC(C)C[C@H]1NC(=O)CCNC(=O)CNC(=O)[C@H](NC(=N)N)CCOCNC(=O)[C@H](CCCCN)NC(=O)[C@H](CCCCN)NC1=O
### Response 8.37

* * *

experiment_notes: Binding affinity to West Nile virus NSB2 (52 to 96 amino acids)-NS3 (1 to 184 amino acids) protease using Phac-Leu-Lys-Lys-Arg-AMC as substrate measured immediately upto 10 mins by fluorogenic assay
*1 amine or outer side, *2 acyl side, *3 side chain or, on linkers, in order; H or OH if unused. Where a SMILES comes first, the peptide text is derived from it. [ ]: non-standard residue; d: D form. X2 = N=C(N)N[C@H](CCOCN[*:1])C(=O)[*:2]; βAla = NCCC(=O)O; Sar = CNCC(=O)O
Kindly apply the following: fulfilled if Ki is less than 700 nM, not fulfilled in every other case.

Would you please look over these solved cases?
molecule	assigned_category
N=C(N)N[C@@H]1CCOCNC(=O)[C@H](CCCCN)NC(=O)[C@H](CCCCN)NC(=O)[C@@H](CC2CCCCC2)NC(=O)CCNC(=O)CNC1=O	not fulfilled
CC(C)C[C@H]1NC(=O)CCNC(=O)CNC(=O)[C@H](NC(=N)N)CCOCNC(=O)[C@H](CCCCN)NC(=O)[C@H](CCCCN)NC1=O	not fulfilled
C[C@@H]1NC(=O)CNC(=O)CNC(=O)[C@H](NC(=N)N)CCOCNC(=O)[C@H](CCCCN)NC(=O)[C@H](CCCCN)NC1=O	not fulfilled
C[C@@H]1NC(=O)CCNC(=O)CNC(=O)[C@H](NC(=N)N)CCOCNC(=O)[C@H](CCCCN)NC(=O)[C@H](CCCCN)NC1=O	not fulfilled
N=C(N)N[C@@H]1CCOCNC(=O)[C@H](CCCCN)NC(=O)[C@H](CCCCN)NC(=O)Cc2cccc(c2)CNC(=O)[C@@H](CC2CCCCC2)NC1=O	fulfilled

### Prompt Is Ki of CC(C)[C@H]1NC(=O)CCNC(=O)CNC(=O)[C@H](NC(=N)N)CCOCNC(=O)[C@H](CCCCN)NC(=O)[C@H](CCCCN)NC1=O.O=C(O)C(F)(F)F strictly below 700 nM?
### Response not fulfilled

### Prompt Is Ki of N=C(N)N[C@@H]1CCOCNC(=O)[C@H](CCCCN)NC(=O)[C@H](CCCCN)NC(=O)Cc2cccc(c2)CNC(=O)[C@@H](CCC2CCCCC2)NC1=O.O=C(O)C(F)(F)F strictly below 700 nM?
### Response fulfilled

### Prompt Is Ki of N=C(N)N[C@@H]1CCOCNC(=O)[C@H](CCCCN)NC(=O)[C@H](CCCCN)NC(=O)Cc2cccc(c2)CNC(=O)[C@@H](CCc2ccccc2)NC1=O strictly below 700 nM?
### Response fulfilled

### Prompt Is Ki of CN1CC(=O)NCCC(=O)N[C@@H](CCCCN)C(=O)N[C@@H](CCCCN)C(=O)NCOCC[C@@H](NC(=N)N)C(=O)NCC1=O (cyclo(G[Sar][βAla]KK[X2])) strictly below 700 nM?
### Response not fulfilled

### Prompt Is Ki of CC(C)C[C@H]1NC(=O)[C@H](NC(=N)N)CCOCNC(=O)[C@H](CCCCN)NC(=O)[C@H](CCCCN)NC(=O)Cc2cccc(c2)CNC1=O strictly below 700 nM?
### Response fulfilled
